test: Chrom LogP of maytansinoid conjugates; assay type: physicochemical
Where a SMILES comes first, the peptide text is derived from it. Bridges are numbered along the chain shown (N, C = ends). [ ]: non-standard residue; d: D form. The star is where a group is joined. NH(CH2)2SS(DM1) = COc1cc2cc(c1Cl)N(C)C(=O)C[C@H](OC(=O)[C@H](C)N(C)C(=O)CCSSCCN*)[C@]1(C)O[C@H]1[C@H](C)[C@@H]1C[C@@](O)(NC(=O)O1)[C@H](OC)/C=C/C=C(\C)C2; Octanoyl = CCCCCCCC(=O)*
As shown below, each of these compounds has a reported chromatographic logP value.
Measurement label: chromatographic logP

1) CCNC(=O)[C@@H](NC(=O)[C@@H]1CSSC[C@H](NC(=O)[C@@H](Cc2ccccc2)NC(=O)NCCSSCCC(=O)N(C)[C@@H](C)C(=O)O[C@H]2CC(=O)N(C)c3cc(cc(OC)c3Cl)C/C(C)=C/C=C/[C@@H](OC)[C@@]3(O)C[C@H](OC(=O)N3)[C@@H](C)[C@@H]3O[C@@]23C)C(=O)N[C@@H](Cc2ccc(O)cc2)C(=O)N[C@H](Cc2c[nH]c3ccccc23)C(=O)N[C@@H](CCCCN)C(=O)N[C@@H]([C@@H](C)O)C(=O)N1)[C@@H](C)O [Conjugate 53] :: 2.45
2) CCCCCCCC(=O)N[C@H](Cc1ccccc1)C(=O)N[C@H]1CSSC[C@@H](C(=O)NCCSSCCC(=O)N(C)[C@@H](C)C(=O)O[C@H]2CC(=O)N(C)c3cc(cc(OC)c3Cl)C/C(C)=C/C=C/[C@@H](OC)[C@@]3(O)C[C@H](OC(=O)N3)[C@@H](C)[C@@H]3O[C@@]23C)NC(=O)[C@H]([C@@H](C)O)NC(=O)[C@H](CCCCN)NC(=O)[C@@H](Cc2c[nH]c3ccccc23)NC(=O)[C@H](Cc2ccc(O)cc2)NC1=O [Conjugate 21] (Octanoyl-[dF]CY[dW]KTC-{NH(CH2)2SS(DM1)}; disulfide 2-7) :: 3.48

* * *

The listing below reports Ki for compounds tested on human SSTR2 (Homo sapiens, UniProt P30874).
Sequence (P30874 whole entry): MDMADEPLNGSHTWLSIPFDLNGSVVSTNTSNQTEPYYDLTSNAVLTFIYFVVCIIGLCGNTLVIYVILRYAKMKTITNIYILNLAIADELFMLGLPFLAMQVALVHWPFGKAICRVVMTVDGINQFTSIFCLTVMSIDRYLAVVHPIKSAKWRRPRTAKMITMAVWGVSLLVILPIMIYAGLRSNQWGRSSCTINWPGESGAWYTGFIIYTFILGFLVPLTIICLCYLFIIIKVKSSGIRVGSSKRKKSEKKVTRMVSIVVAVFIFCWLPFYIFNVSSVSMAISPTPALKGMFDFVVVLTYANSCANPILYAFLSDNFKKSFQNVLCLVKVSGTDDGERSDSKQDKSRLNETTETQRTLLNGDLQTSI
Measurement label: Ki (nM)

1) COc1cc2cc(c1Cl)N(C)C(=O)C[C@H](OC(=O)[C@H](C)N(C)C(=O)CCSSC[C@H](NC(=O)[C@@H]1CSSC[C@H](NC(=O)[C@@H](Cc3ccccc3)NS(C)(=O)=O)C(=O)N[C@@H](Cc3ccc(O)cc3)C(=O)N[C@H](Cc3c[nH]c4ccccc34)C(=O)N[C@@H](CCCCN)C(=O)N[C@@H]([C@@H](C)O)C(=O)N1)C(N)=O)[C@]1(C)O[C@H]1[C@H](C)[C@@H]1C[C@@](O)(NC(=O)O1)[C@H](OC)/C=C/C=C(\C)C2 [Conjugate 34] :: 0.18
2) COc1cc2cc(c1Cl)N(C)C(=O)C[C@H](OC(=O)[C@H](C)N(C)C(=O)CCSSC(C)(C)[C@H](NC(=O)[C@@H]1CSSC[C@H](NC(=O)[C@@H](Cc3ccccc3)NS(=O)(=O)Cc3ccc(C(F)(F)F)cc3)C(=O)N[C@@H](Cc3ccc(O)cc3)C(=O)N[C@H](Cc3c[nH]c4ccccc34)C(=O)N[C@@H](CCCCN)C(=O)N[C@@H]([C@@H](C)O)C(=O)N1)C(N)=O)[C@]1(C)O[C@H]1[C@H](C)[C@@H]1C[C@@](O)(NC(=O)O1)[C@H](OC)/C=C/C=C(\C)C2 [Conjugate 14] :: 0.041
3) COc1cc2cc(c1Cl)N(C)C(=O)C[C@H](OC(=O)[C@H](C)N(C)C(=O)CCSSCCNC(=O)CC[C@H]1C(=O)N[C@@H](Cc3ccc(O)cc3)C(=O)N[C@H](Cc3c[nH]c4ccccc34)C(=O)N[C@@H](CCCCNC(=O)NCCCCCCN)C(=O)N[C@@H]([C@@H](C)O)C(=O)N[C@@H](Cc3ccccc3)C(=O)N1C)[C@]1(C)O[C@H]1[C@H](C)[C@@H]1C[C@@](O)(NC(=O)O1)[C@H](OC)/C=C/C=C(\C)C2 [Conjugate 55] :: 110

* * *

biological target: UniProtKB P30874
pKi: −log10 of the molar value.
Measurement label: pKi

1. COc1cc2cc(c1Cl)N(C)C(=O)C[C@H](OC(=O)[C@H](C)N(C)C(=O)CCSSC(C)(C)[C@@H](NC(=O)[C@@H]1CSSC[C@H](NC(=O)[C@H](N)Cc3ccccc3)C(=O)N[C@@H](Cc3ccc(O)cc3)C(=O)N[C@H](Cc3c[nH]c4ccccc34)C(=O)N[C@@H](CCCCN)C(=O)N[C@@H]([C@@H](C)O)C(=O)N1)C(N)=O)[C@]1(C)O[C@H]1[C@H](C)[C@@H]1C[C@@](O)(NC(=O)O1)[C@H](OC)/C=C/C=C(\C)C2 [Conjugate 8] :: 9.10
2. COc1cc2cc(c1Cl)N(C)C(=O)C[C@H](OC(=O)[C@H](C)N(C)C(=O)CCSSC(C)(C)[C@@H](NC(=O)[C@@H]1CSSC[C@H](NC(=O)[C@@H](Cc3ccccc3)NC(=O)NCc3ccccc3)C(=O)N[C@@H](Cc3ccc(O)cc3)C(=O)N[C@H](Cc3c[nH]c4ccccc34)C(=O)N[C@@H](CCCCN)C(=O)N[C@@H]([C@@H](C)O)C(=O)N1)C(N)=O)[C@]1(C)O[C@H]1[C@H](C)[C@@H]1C[C@@](O)(NC(=O)O1)[C@H](OC)/C=C/C=C(\C)C2 [Conjugate 9] :: 8.50

* * *

assay: Ligand charge of maytansinoid conjugates; assay type: physicochemical
A collection of compounds and their measured Ligand charge
Measurement label: Ligand charge

1) CCNC(=O)N[C@H](Cc1ccccc1)C(=O)N[C@H]1CSSC[C@@H](C(=O)N[C@H](C(=O)NCCCCCN2C(=O)CC(SCCC(=O)N(C)[C@@H](C)C(=O)O[C@H]3CC(=O)N(C)c4cc(cc(OC)c4Cl)C/C(C)=C/C=C/[C@@H](OC)[C@@]4(O)C[C@H](OC(=O)N4)[C@@H](C)[C@@H]4O[C@@]34C)C2=O)[C@@H](C)O)NC(=O)[C@H]([C@@H](C)O)NC(=O)[C@H](CCCCN)NC(=O)[C@@H](Cc2c[nH]c3ccccc23)NC(=O)[C@H](Cc2ccc(O)cc2)NC1=O (some centres unmarked) [Conjugate 23] :: +1
2) COc1cc2cc(c1Cl)N(C)C(=O)C[C@H](OC(=O)[C@H](C)N(C)C(=O)CCSSC(C)(C)[C@@H](NC(=O)[C@@H]1CSSC[C@H](NC(=O)[C@@H](Cc3ccccc3)NC(=O)NCc3ccccc3)C(=O)N[C@@H](Cc3ccc(O)cc3)C(=O)N[C@H](Cc3c[nH]c4ccccc34)C(=O)N[C@@H](CCCCN)C(=O)N[C@@H]([C@@H](C)O)C(=O)N1)C(N)=O)[C@]1(C)O[C@H]1[C@H](C)[C@@H]1C[C@@](O)(NC(=O)O1)[C@H](OC)/C=C/C=C(\C)C2 [Conjugate 9] :: +1

* * *

Measured Ligand charge values are reported for all entries that follow.
assay: Ligand charge of maytansinoid conjugates; assay type: physicochemical
Measurement label: Ligand charge

1) COc1cc2cc(c1Cl)N(C)C(=O)C[C@H](OC(=O)[C@H](C)N(C)C(=O)CCSC1CC(=O)N(CCCNC(=O)CC[C@H](NC(=O)[C@@H]3CSSC[C@H](NC(=O)[C@H](N)Cc4ccccc4)C(=O)N[C@@H](Cc4ccc(O)cc4)C(=O)N[C@H](Cc4c[nH]c5ccccc45)C(=O)N[C@@H](CCCCN)C(=O)N[C@@H]([C@@H](C)O)C(=O)N3)C(N)=O)C1=O)[C@]1(C)O[C@H]1[C@H](C)[C@@H]1C[C@@](O)(NC(=O)O1)[C@H](OC)/C=C/C=C(\C)C2 (stereo partly drawn) [Conjugate 48] :: +2
2) CCCCCCNC(=O)[C@@H](NC(=O)[C@@H]1CSSC[C@H](NC(=O)[C@@H](Cc2ccccc2)NC(=O)NCCSSCCC(=O)N(C)[C@@H](C)C(=O)O[C@H]2CC(=O)N(C)c3cc(cc(OC)c3Cl)C/C(C)=C/C=C/[C@@H](OC)[C@@]3(O)C[C@H](OC(=O)N3)[C@@H](C)[C@@H]3O[C@@]23C)C(=O)N[C@@H](Cc2ccc(O)cc2)C(=O)N[C@H](Cc2c[nH]c3ccccc23)C(=O)N[C@@H](CCCCN)C(=O)N[C@@H]([C@@H](C)O)C(=O)N1)[C@@H](C)O [Conjugate 52] :: +1
3) CCNC(=O)N[C@H](Cc1ccccc1)C(=O)N[C@H]1CSSC[C@@H](C(=O)N[C@@H](CSSCCC(=O)N(C)[C@@H](C)C(=O)O[C@H]2CC(=O)N(C)c3cc(cc(OC)c3Cl)C/C(C)=C/C=C/[C@@H](OC)[C@@]3(O)C[C@H](OC(=O)N3)[C@@H](C)[C@@H]3O[C@@]23C)C(=O)NCC)NC(=O)[C@H]([C@@H](C)O)NC(=O)[C@H](CCCCN)NC(=O)[C@@H](Cc2c[nH]c3ccccc23)NC(=O)[C@H](Cc2ccc(O)cc2)NC1=O [Conjugate 30] :: +1
4) COc1cc2cc(c1Cl)N(C)C(=O)C[C@H](OC(=O)[C@H](C)N(C)C(=O)CCSSC[C@H](NC(=O)[C@@H]1CSSC[C@H](NC(=O)[C@@H](Cc3ccccc3)NC(C)=O)C(=O)N[C@@H](Cc3ccc(O)cc3)C(=O)N[C@H](Cc3c[nH]c4ccccc34)C(=O)N[C@@H](CCCCN)C(=O)N[C@@H]([C@@H](C)O)C(=O)N1)C(N)=O)[C@]1(C)O[C@H]1[C@H](C)[C@@H]1C[C@@](O)(NC(=O)O1)[C@H](OC)/C=C/C=C(\C)C2 [Conjugate 27] :: +1
5) COc1cc2cc(c1Cl)N(C)C(=O)C[C@H](OC(=O)[C@H](C)N(C)C(=O)CCSSC[C@H](NC(=O)[C@@H]1CSSC[C@H](NC(=O)[C@@H](Cc3ccccc3)NCc3ccccc3)C(=O)N[C@@H](Cc3ccc(O)cc3)C(=O)N[C@H](Cc3c[nH]c4ccccc34)C(=O)N[C@@H](CCCCN)C(=O)N[C@@H]([C@@H](C)O)C(=O)N1)C(N)=O)[C@]1(C)O[C@H]1[C@H](C)[C@@H]1C[C@@](O)(NC(=O)O1)[C@H](OC)/C=C/C=C(\C)C2 [Conjugate 43] :: +2
6) COc1cc2cc(c1Cl)N(C)C(=O)C[C@H](OC(=O)[C@H](C)N(C)C(=O)CCSSC[C@H](NC(=O)[C@@H]1CSSC[C@H](NC(=O)[C@@H](Cc3ccccc3)NC(=O)NCc3ccc(C(F)(F)F)cc3)C(=O)N[C@@H](Cc3ccc(O)cc3)C(=O)N[C@H](Cc3c[nH]c4ccccc34)C(=O)N[C@@H](CCCCN)C(=O)N[C@@H]([C@@H](C)O)C(=O)N1)C(N)=O)[C@]1(C)O[C@H]1[C@H](C)[C@@H]1C[C@@](O)(NC(=O)O1)[C@H](OC)/C=C/C=C(\C)C2 [Conjugate 37] :: +1
7) COc1cc2cc(c1Cl)N(C)C(=O)C[C@H](OC(=O)[C@H](C)N(C)C(=O)CCSSC[C@H](NC(=O)CC[C@H](NC(=O)[C@@H]1CSSC[C@H](NC(=O)[C@H](N)Cc3ccccc3)C(=O)N[C@@H](Cc3ccc(O)cc3)C(=O)N[C@H](Cc3c[nH]c4ccccc34)C(=O)N[C@@H](CCCCN)C(=O)N[C@@H]([C@@H](C)O)C(=O)N1)C(N)=O)C(N)=O)[C@]1(C)O[C@H]1[C@H](C)[C@@H]1C[C@@](O)(NC(=O)O1)[C@H](OC)/C=C/C=C(\C)C2 [Conjugate 46] :: +2
8) COc1cc2cc(c1Cl)N(C)C(=O)C[C@H](OC(=O)[C@H](C)N(C)C(=O)CCSSC[C@H](NC(=O)[C@@H]1CSSC[C@H](NC(=O)[C@@H](Cc3ccccc3)NC(=O)NC3CCCCC3)C(=O)N[C@@H](Cc3ccc(O)cc3)C(=O)N[C@H](Cc3c[nH]c4ccccc34)C(=O)N[C@@H](CCCCN)C(=O)N[C@@H]([C@@H](C)O)C(=O)N1)C(N)=O)[C@]1(C)O[C@H]1[C@H](C)[C@@H]1C[C@@](O)(NC(=O)O1)[C@H](OC)/C=C/C=C(\C)C2 [Conjugate 25] :: +1
9) COc1cc2cc(c1Cl)N(C)C(=O)C[C@H](OC(=O)[C@H](C)N(C)C(=O)CCSSCCNC(=O)CC[C@H](NC(=O)[C@@H]1CSSC[C@H](NC(=O)[C@H](N)Cc3ccccc3)C(=O)N[C@@H](Cc3ccc(O)cc3)C(=O)N[C@H](Cc3c[nH]c4ccccc34)C(=O)N[C@@H](CCCCN)C(=O)N[C@@H]([C@@H](C)O)C(=O)N1)C(N)=O)[C@]1(C)O[C@H]1[C@H](C)[C@@H]1C[C@@](O)(NC(=O)O1)[C@H](OC)/C=C/C=C(\C)C2 [Conjugate 47] :: +2
